Tested on: SR
run-description: NCI tumour cell line growth inhibition, 48 h
The source made the active and inactive calls. Rule as the data show it: active = GI50 up to about 1.1 µM and inactive = higher.
Choose the fitting class; nothing outside active, inactive is accepted.

Please review the entries below; each comes with its answer.
compound: CC1(C)/C(=N\Nc2ccc([N+](=O)[O-])cc2[N+](=O)[O-])C2CCC1C2 (stereo not given)
class-assignment: inactive

compound: NCCCNCCCNCCCN
class-assignment: inactive

compound: CC(C)N1CC2CN(Cc3ccccc3)CC(C1)C2=O
class-assignment: inactive

Input: Just curious, what result did "O=C(O)/C(Cc1ccnc2ccccc12)=N\O" get here?
Output: inactive

Input: Continue with "Cc1cc(S(=O)(=O)Nc2nc(Nc3ccccc3)n[nH]2)c(SSc2cc(Cl)c(C)cc2S(=O)(=O)Nc2nc(Nc3ccccc3)n[nH]2)cc1Cl"
Output: inactive

Input: Continue with CC1OC(O[C@H]2CC[C@]3(C=O)[C@H]4CC[C@]5(C)[C@H](C6=CC(=O)OC6)CC[C@]5(O)[C@@H]4C=C[C@]3(O)C2)CC(O)C1O (stereo not given in full)
Output: active

Input: Continue with CCOC(=O)C1=C(C)N(Cc2ccccc2)C2(O)C(OC)CC(=O)C3C(=O)N(c4ccccc4)C(=O)C132 (stereo not given)
Output: inactive

Input: Continue with O=C(Nc1cccc(C(F)(F)F)c1)C(=O)C(C(=O)c1ccc2ccccc2c1)C1OC(=O)c2ccccc21 (stereo not given)
Output: inactive

Input: Continue with COc1cccc2c1C(=O)c1c(O)c3c(c(O)c1C2=O)C[C@@](O)(C(=O)CO)C[C@@H]3OC1CC(N2CCOCC2)C(O)C(C)O1 (stereo not given in full)
Output: active

Input: Continue with "Cc1cc(C(C)(C)C)c(OCCCN2CCOCC2)c(C(C)(C)C)c1"
Output: inactive

###

In this section we review reported GI50 values for a set of molecules.
System: K562
run-description: NCI tumour cell line growth inhibition, 48 h
Calls of active or inactive are those of the source. Cut-off read from the data, not from the text of the source: active = GI50 up to about 1.1 µM and inactive = higher.

molecule: COC(=O)C(=O)C(C(=O)C=C(C)C)C(=O)C(=O)Nc1nc2ccc([N+](=O)[O-])cc2s1 (configuration not stated)
test-system: K562
result: 46.2 µM (inactive)

Input: // GI50 lookup, key: O=C1c2ccccc2CC12Cc1ccc3c(c1C2)CCC3 (configuration not stated)
Output: 22.3 µM (inactive)

Input: Continue with "Cc1ccc2c(c1)-c1c(C#N)c(N)nc(-c3ccccc3)c1CCS2(=O)=O"
Output: 1.97 µM (inactive)

Input: Continue with "O=C(O)/C=C\C(=O)c1ccc(Cl)cc1"
Output: 31.1 µM (inactive)

Input: Continue with "CN1c2ccccc2C(=O)NC12CCN(CCCC(=O)c1ccc(F)cc1)CC2"
Output: 25.9 µM (inactive)

Input: Continue with "CO[P@]1(=O)O[C@@H](c2ccccc2)[C@H](O)[C@@]1(O)c1ccccc1"
Output: > 100 µM (inactive)

Input: Continue with "O=C(/C=C/c1ccccc1)N1CCCCC1"
Output: > 100 µM (inactive)

Input: Continue with "CN(C)c1ccc2c(c1)C(=O)N(OS(=O)(=O)c1ccc([N+](=O)[O-])cc1)C2=O"
Output: 31.6 µM (inactive)

Input: Continue with "O=C(N/N=C/c1ccccc1O)c1ccccc1Nc1ccccc1C(=O)N/N=C/c1ccccc1O"
Output: 1 µM (active)

Input: Continue with "C#Cc1cccc(N2C(=O)CC(=P(c3ccccc3)(c3ccccc3)c3ccccc3)C2=O)c1"
Output: 35.4 µM (inactive)

Input: Continue with "CC(C)c1c(P(=O)(c2ccccc2)c2ccccc2)n(C)c2ccccc12"
Output: 37.8 µM (inactive)

Input: Continue with "O=S(=O)(c1cccc(N=C=S)c1)c1cccc(N=C=S)c1"
Output: 16.3 µM (inactive)

Input: Continue with "Cc1cc2c(cc1Cl)SC(NNCCO)=NS2(=O)=O"
Output: 56.2 µM (inactive)

Input: Continue with CC1(c2ccccc2)CC12C(=O)NC(=O)NC2=O (configuration not stated)
Output: > 100 µM (inactive)

Input: Continue with "COc1cc(Nc2cnc3cc(N)ccc3n2)cc(OC)c1OC"
Output: 42.3 µM (inactive)

Input: Continue with "Cc1ccc(S(=O)(=O)c2c(N)n(CCN(C)C)c3nc4ccccc4nc23)cc1"
Output: > 100 µM (inactive)

Input: Continue with "COC1(OC)CCCc2c1no[n+]2[O-]"
Output: > 100 µM (inactive)

###

Test system: SK-MEL-2
run-description: NCI tumour cell line growth inhibition, 48 h
Activity calls are given as the source filed them. Rule as the data show it: active = GI50 up to about 1.1 µM and inactive = higher.
Choose the fitting class; nothing outside active, inactive is accepted.

Please review the entries below; each comes with its answer.
compound: CCOC(=O)/C(C#N)=C/c1ccc(SCc2ccco2)c([N+](=O)[O-])c1
class-assignment: inactive
//
compound: OC(COc1ccc(Cl)cc1Cl)CN1CCCC1 (stereo not drawn)
class-assignment: inactive
//
compound: Cc1ccc(S(=O)(=O)N(CC(=O)O)c2ccccc2)cc1
class-assignment: inactive
//
compound: OCCCNc1ccnc2cc(Cl)ccc12
class-assignment: inactive
//
compound: CN(O)C(=O)Cc1ccc(OCc2cccc(Cl)c2)cc1
class-assignment: inactive

Input: Just curious, what result did CCOP(=O)(OCC)C(C(=O)OC)C(=O)C(=O)Nc1cccc(O)c1 (stereo not drawn) get here?
Output: inactive

Input: Continue with O=C(c1nc2ccc(Cl)cc2[nH]c1=O)C(O)c1ccco1 (stereo not drawn)
Output: inactive

Input: Continue with "CC1=C(C(=O)Nc2ccccc2C)C(c2ccc(N(C)C)cc2)C(C(=O)Nc2ccccc2C)=C(C)N1"
Output: inactive

###

Test system: A549
run-description: NCI tumour cell line growth inhibition, 48 h
Active and inactive are the calls of the source. No stated cut-off is given here; in the data, active = GI50 up to about 1.1 µM and inactive = higher.
In this section we review reported GI50 values for a set of compounds.

compound: CN/C=C(/c1ccc(OC)cc1)C(O)c1ccc(OC)c(OC)c1 (centres undefined)
GI50: > 100 µM (inactive)

Input: // GI50 lookup, key: CC(C)CCCC(C)C1CCC2C3CC([N+](=O)[O-])=C4CC(O)CCC4(C)C3CCC12C (centres undefined)
Output: 23.2 µM (inactive)

Input: Continue with "Nc1ccc(Oc2ccc(C34CC5CC6C3CC3CC4C(C5)C6(c4ccc(Oc5ccc(N)cc5)cc4)C3)cc2)cc1"
Output: 12.6 µM (inactive)

Input: Continue with "CCOC(=O)c1cc(I)c(-c2cc(C)no2)n1C"
Output: 61.7 µM (inactive)

###

In this section we review reported GI50 values for a set of compounds.
Tested on: LOX IMVI
run-description: NCI tumour cell line growth inhibition, 48 h
Active and inactive are the calls of the source. Rule as the data show it: active = GI50 up to about 1.1 µM and inactive = higher.

Worked cases, answers included:
compound: COc1ccc(NC(=S)NC(=O)c2ccc3c(c2)Sc2ccccc2O3)c([N+](=O)[O-])c1
GI50: > 100 µM (inactive)

compound: c1cc(C2=NCCO2)c2ccsc2c1
GI50: > 100 µM (inactive)

compound: COc1cc(C2SCC(=O)N2c2ccc(-c3ccc(-n4c(-c5ccccc5)nc5ccccc5c4=O)cc3)cc2)cc(OC)c1OC (configuration not stated)
GI50: 2.21 µM (inactive)

compound: CCOP(=O)(OCC)C(C(=O)OC)C(=O)C(=O)Nc1cccc(O)c1 (configuration not stated)
GI50: > 100 µM (inactive)

compound: O=[N+]([O-])c1cccc(-c2csc(N/N=C3\NC/C(=C/c4ccc5c(c4)OCO5)S3)n2)c1
GI50: 50.7 µM (inactive)

Input: // GI50 lookup, key: O=C(OC(/C=C/c1ccccc1)P1(=O)N(Cc2ccccc2)[C@@H]2CCCC[C@H]2N1Cc1ccccc1)c1ccccc1 (some centres not stated)
Output: 3.57 µM (inactive)

Input: Continue with "CCOc1c2c(cc3c1C(=O)c1c(OC)cccc1C3=O)C=C(OC)CC2"
Output: 16.8 µM (inactive)

Input: Continue with CC1(CO)OC(n2cc(C(=O)NC(=O)OCc3ccccc3)c(=O)[nH]c2=O)CC1O (configuration not stated)
Output: > 100 µM (inactive)

###

System: SF-268
run-description: NCI tumour cell line growth inhibition, 48 h
Calls of active or inactive are those of the source. No stated cut-off is given here; in the data, active = GI50 up to about 1.1 µM and inactive = higher.
Choose the fitting class; nothing outside true for active, false for inactive is accepted.

Please review the entries below; each comes with its answer.
molecule: COc1cc(C=O)c(-c2c(C=O)ccc3c2OCO3)c(OC)c1OC
class-assignment: false
--
molecule: Cc1cc(Cl)ccc1NC(=O)CC/C(CC(=O)C(C)C)=N\NC(=O)C[n+]1ccccc1
class-assignment: false
--
molecule: O=c1oc2ccc(Cl)cc2cc1-c1cn2ccsc2n1
class-assignment: false
--
molecule: CC(=O)O[C@H]1C(N(C)C(=O)c2ccccc2)CC[C@]2(C)C3CC[C@@]4(C)C(CC(O)[C@@H]4C(C)N(C)C)[C@@H]3CCC12 (some centres not stated)
class-assignment: false
--
molecule: CC(C)(C)OC(=O)N(CCCCN(CCCNC(=O)C(F)(F)F)C(=O)OC(C)(C)C)CCCNC(=O)C(F)(F)F
class-assignment: false
--
molecule: COc1cc(C2c3cc4c(cc3[C@H](OCCN(C)C)[C@@H]3COC(=O)C23)OCO4)cc(OC)c1O (some centres not stated)
class-assignment: true
--
molecule: Nc1nc(CCl)nc(Nc2ccccc2)n1
class-assignment: false
--
molecule: c1cnn(CN(Cn2cccn2)Cn2cccn2)c1
class-assignment: false

Input: Just curious, what result did "CN(O)C(=O)Cc1ccc(OCc2cccc(Cl)c2)cc1" get here?
Output: false

Input: Continue with "COc1ccc(NCc2cc(OC)c(OC)c(OC)c2)cc1"
Output: true

Input: Continue with "O=C(c1ccc(Cl)cc1)c1ccc(OCCCOc2ccc(C(=O)c3ccc(Cl)cc3)cc2)cc1"
Output: false

Input: Continue with O=C(NCc1cccnc1)C1COc2cc(-c3cc(=O)c4ccccc4o3)ccc2O1 (configuration not stated)
Output: false

Input: Continue with "Cc1cc2c(cc1-c1cc3c(cc1C)C(C(C)C)=C(O)C(=O)/C3=C\Nc1c(C)n(C)n(-c3ccccc3)c1=O)/C(=C/Nc1c(C)n(C)n(-c3ccccc3)c1=O)C(=O)C(O)=C2C(C)C"
Output: false

Input: Continue with COC(=N)C1(C#N)NC(c2ccsc2)C(C#N)(C#N)NC1c1ccsc1 (configuration not stated)
Output: false

Input: Continue with "COc1ccc(C(=O)NCCC2=CCCCC2)cc1"
Output: false

Input: Continue with CCOC(=O)CCC(C(=O)OCC)n1nnc2cc(Nc3c(C)[n+]([O-])c4cc(F)c(OCC)cc4[n+]3[O-])ccc21 (configuration not stated)
Output: false

Input: Continue with "CCCCCn1c(=O)c2c(=O)[nH][nH]c2c2ccccc21"
Output: false
